Values were extracted from patent US7435736B2.

molecular target: UniProtKB P21452; assay: Signal transduction (ST), intracellular Ca++ FLIPR, NK2 antagonistic activity; format: cell-based; conditions: read-out: pIC50 h-NK2 (converted)
Sequence (P21452 whole entry): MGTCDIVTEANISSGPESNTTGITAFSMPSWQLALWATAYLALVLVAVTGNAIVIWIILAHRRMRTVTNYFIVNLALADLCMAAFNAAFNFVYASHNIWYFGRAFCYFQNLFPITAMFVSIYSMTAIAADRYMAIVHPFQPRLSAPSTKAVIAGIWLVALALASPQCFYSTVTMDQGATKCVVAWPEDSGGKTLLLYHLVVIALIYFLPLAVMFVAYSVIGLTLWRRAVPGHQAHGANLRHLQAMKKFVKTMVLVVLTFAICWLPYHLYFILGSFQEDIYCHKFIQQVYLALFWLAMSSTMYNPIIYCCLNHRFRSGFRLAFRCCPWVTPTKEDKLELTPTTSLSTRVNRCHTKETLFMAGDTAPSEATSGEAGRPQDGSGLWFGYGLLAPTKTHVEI
property.measured: IC50 (µM)

- compound: "CC(C(=O)N1CC(N2CCN([C@H]3CCN(C(=O)c4cc(C(F)(F)F)cc(C(F)(F)F)c4)[C@H](Cc4ccccc4)C3)CC2)C1)c1ccccc1 (stereo partly drawn) [Compound 14]"
  measurement.unit: "µM"
  recorded.value: 3.98
- compound: "CC(C)(C)OC(=O)N1CCC[C@@H]1C(=O)N1CC(N2CCN([C@H]3CCN(C(=O)c4cc(C(F)(F)F)cc(C(F)(F)F)c4)[C@H](Cc4ccccc4)C3)CC2)C1 [Compound 22]"
  measurement.unit: "µM"
  recorded.value: 5.5

---

target: UniProtKB P29371; experiment: Signal transduction (ST), intracellular Ca++ FLIPR, NK3 antagonistic activity; type: cell-based; settings: read-out: pIC50 h-NK3 (converted)
property.measured: IC50 (µM)

I: Cc1nnsc1C(=O)N1CC(N2CCN([C@H]3CCN(C(=O)c4cc(C(F)(F)F)cc(C(F)(F)F)c4)[C@H](Cc4ccccc4)C3)CC2)C1 [Compound 16]
II: O=C(c1cc(C(F)(F)F)cc(C(F)(F)F)c1)N1CCC(N2CCN(C3CN(S(=O)(=O)c4cccs4)C3)CC2)CC1Cc1ccccc1 (stereo not drawn) [Compound 15]
Query string: Select one: I or II . Criterion: greater recorded IC50. Answer by stating the label of the chosen item.
Result string: I

---

biological target: h-NK3 (Homo sapiens); test: Signal transduction (ST), intracellular Ca++ FLIPR, NK3 antagonistic activity; format: cell-based; conditions: read-out: pIC50 h-NK3 (converted)
Sequence (P29371 whole entry): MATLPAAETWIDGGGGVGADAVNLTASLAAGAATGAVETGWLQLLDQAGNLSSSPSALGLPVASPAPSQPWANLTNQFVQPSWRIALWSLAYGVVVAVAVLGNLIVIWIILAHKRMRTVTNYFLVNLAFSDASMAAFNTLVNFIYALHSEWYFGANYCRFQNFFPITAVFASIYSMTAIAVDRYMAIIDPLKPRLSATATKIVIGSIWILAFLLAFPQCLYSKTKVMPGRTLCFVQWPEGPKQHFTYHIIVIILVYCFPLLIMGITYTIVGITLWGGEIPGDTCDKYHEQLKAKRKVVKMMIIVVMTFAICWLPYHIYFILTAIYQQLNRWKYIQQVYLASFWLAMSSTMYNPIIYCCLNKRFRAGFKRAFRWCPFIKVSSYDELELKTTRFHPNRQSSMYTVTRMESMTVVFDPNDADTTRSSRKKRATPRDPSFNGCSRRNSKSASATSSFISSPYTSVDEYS
property.measured: IC50 (µM)

# example entries with known answers
- compound: "CC(C)(C)C(=O)N1CC(N2CCN([C@H]3CCN(C(=O)c4cc(C(F)(F)F)cc(C(F)(F)F)c4)[C@H](Cc4ccccc4)C3)CC2)C1 [Compound 17]"
  measurement.unit: "µM"
  recorded.value: 5.5
- compound: "Cc1cc(C(=O)N2CC(N3CCN([C@H]4CCN(C(=O)c5cc(C(F)(F)F)cc(C(F)(F)F)c5)[C@H](Cc5ccccc5)C4)CC3)C2)n(C)n1 [Compound 7]"
  measurement.unit: "µM"
  recorded.value: 3.47

A: O=C(c1ccccc1Cl)N1CC(N2CCN([C@H]3CCN(C(=O)c4cc(C(F)(F)F)cc(C(F)(F)F)c4)[C@H](Cc4ccccc4)C3)CC2)C1 [Compound 18]
B: CC(C)(C)OC(=O)N1CCC[C@@H]1C(=O)N1CC(N2CCN([C@H]3CCN(C(=O)c4cc(C(F)(F)F)cc(C(F)(F)F)c4)[C@H](Cc4ccccc4)C3)CC2)C1 [Compound 22]
Query string: Which value of IC50 is smaller, the one for A or the one for B ? Select an item and report its label.
Result string: B
(B: 1.82 µM, A: 4.37 µM)

---

target: h-NK1 (Homo sapiens, UniProt P25103); assay: Signal transduction (ST), intracellular Ca++ FLIPR, NK1 antagonistic activity; format: cell-based; details: read-out: pIC50 h-NK1 (converted)
Sequence (P25103 whole entry): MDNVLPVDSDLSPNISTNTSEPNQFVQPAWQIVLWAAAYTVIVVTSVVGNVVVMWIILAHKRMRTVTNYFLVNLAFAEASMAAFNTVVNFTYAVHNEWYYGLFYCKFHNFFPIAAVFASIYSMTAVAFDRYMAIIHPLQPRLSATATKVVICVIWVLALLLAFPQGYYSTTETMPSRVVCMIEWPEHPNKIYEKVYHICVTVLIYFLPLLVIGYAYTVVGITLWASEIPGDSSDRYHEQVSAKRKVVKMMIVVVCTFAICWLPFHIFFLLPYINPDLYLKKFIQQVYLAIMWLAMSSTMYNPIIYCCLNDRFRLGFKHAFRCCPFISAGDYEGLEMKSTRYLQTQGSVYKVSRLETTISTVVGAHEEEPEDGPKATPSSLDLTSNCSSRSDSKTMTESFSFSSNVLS
property.measured: IC50 (nM)

- molecule: "O=C(c1cnccn1)N1CC(N2CCN([C@H]3CCN(C(=O)c4cc(C(F)(F)F)cc(C(F)(F)F)c4)[C@H](Cc4ccccc4)C3)CC2)C1"
  recorded.value: 41.7
- molecule: "CC(C)(C)C(=O)N1CC(N2CCN([C@H]3CCN(C(=O)c4cc(C(F)(F)F)cc(C(F)(F)F)c4)[C@H](Cc4ccccc4)C3)CC2)C1"
  recorded.value: 11
- molecule: "O=C(C1CCOC1)N1CC(N2CCN(C3CCN(C(=O)c4cc(C(F)(F)F)cc(C(F)(F)F)c4)C(Cc4ccccc4)C3)CC2)C1 (centres unmarked)"
  recorded.value: 10.5

a: O=C(c1ccccc1Cl)N1CC(N2CCN([C@H]3CCN(C(=O)c4cc(C(F)(F)F)cc(C(F)(F)F)c4)[C@H](Cc4ccccc4)C3)CC2)C1
b: O=C(c1ccsc1)N1CC(N2CCN(C3CCN(C(=O)c4cc(C(F)(F)F)cc(C(F)(F)F)c4)C(Cc4ccccc4)C3)CC2)C1 (centres unmarked)
c: CC(C)(C)OC(=O)N1CCC[C@@H]1C(=O)N1CC(N2CCN([C@H]3CCN(C(=O)c4cc(C(F)(F)F)cc(C(F)(F)F)c4)[C@H](Cc4ccccc4)C3)CC2)C1
Query string: Please order the records by their reported IC50, lowest number first. Thanks in advance for listing the labels in the requested order.
Result string: a, c, b
(a: 10.5 nM, c: 37.2 nM, b: 204 nM)
